# Test system: human red blood cells (hRBC)
# Protocol text: Hemolysis of red blood cells
# Assay type: cell-based
# Assay context: Table 4; concentration required to lyse 50% of red blood cells
Property label: RBC HC50

{"Molecule": "CCCCCCCCCCCCCCCCn1cc[n+](CCO)c1C.[Br-] [Compound 11]", "Property label": "RBC HC50", "Result": "6.8 µM"}
{"Molecule": "CCCCCCCCCCCCCCCCn1cc(-c2ccccc2)[n+](C)n1.[I-] [Compound 30]", "Property label": "RBC HC50", "Result": "12.6 µM"}
{"Molecule": "CCCCCCCCCCCCCCCCn1cc[n+](Cc2ccc(F)cc2C(F)(F)F)c1C.[Br-] [Compound 16]", "Property label": "RBC HC50", "Result": "10.7 µM"}
